tested on: SNB-75; assay: NCI tumour cell line growth inhibition, 48 h
Activity calls are given as the source filed them. No stated cut-off is given here; in the data, active = GI50 up to about 1.1 µM and inactive = higher.
// classify into 1 = active, 0 = inactive

[[record]]
molecule = "COc1ccc2oc(C(=O)N3CC(CCl)c4ccc([N+](=O)[O-])cc43)cc2c1 (stereo not given)"
tested_on = "SNB-75"
group_label = 0


Which result was noted for this molecule in the test: FC(F)(F)c1ccccc1C1SCc2nc3ccccc3n21 (stereo not given)
0

Which result was noted for this molecule in the test: Cc1ccc(NC(=S)N/N=C(/c2ccccc2)c2ccccn2)cc1
1

Which result was noted for this molecule in the test: O=C(C[n+]1ccccc1)N/N=C(\Cc1nc2ccc([N+](=O)[O-])cc2nc1O)C(=O)Nc1cc(Cl)c(Cl)cc1Cl
0

###

test system: MOLT-4; assay: NCI tumour cell line growth inhibition, 48 h
Active and inactive are the calls of the source. Rule as the data show it: active = GI50 up to about 1.1 µM and inactive = higher.
// classify into active, inactive

Recorded results for 10 compounds are shown here.
[[record]]
compound = "COc1ccc(/C=N/c2ccc(-c3nc4ccccc4[nH]3)cc2)cc1OC"
group_label = "inactive"

[[record]]
compound = "CN(C)c1snc2c1c(=O)n(C)c(=O)n2C"
group_label = "inactive"

[[record]]
compound = "O=C(NCCN1CCOCC1)c1ccc(I)cc1"
group_label = "inactive"

[[record]]
compound = "CC(=O)O[C@H]1C(=O)[C@@]2(C)[C@H]([C@H](OC(=O)C3CCCCC3)[C@]3(O)C[C@H](OC(=O)[C@H](O)[C@@H](NC(=O)OC(C)(C)C)c4ccccc4)C(C)=C1C3(C)C)[C@]1(OC(C)=O)CO[C@@H]1C[C@@H]2O"
group_label = "active"

[[record]]
compound = "S=C1NC(c2ccccc2)NC(c2ccccc2)S1 (stereo unspecified)"
group_label = "inactive"

[[record]]
compound = "c1ccc(Sc2nc(Sc3ccccc3)nc(Sc3ccccc3)n2)cc1"
group_label = "inactive"

[[record]]
compound = "CCC1(N=[N+]=[N-])C(=O)c2ccccc2N(c2ccccc2)C1=O (stereo unspecified)"
group_label = "inactive"

[[record]]
compound = "CSc1cc(Br)ccc1-n1c(C(=O)c2ccccc2)c(SC)n(-c2ccccc2)c1=O"
group_label = "inactive"

[[record]]
compound = "COc1ccc(/C=C2\\CCC(C)C3C2=NN(c2ccccc2)C3c2ccc(OC)c(OC)c2)cc1OC (stereo unspecified)"
group_label = "inactive"

[[record]]
compound = "Cc1cc2ncn(-c3nc4ccccc4nc3C(C#N)S(C)(=O)=O)c2cc1C (stereo unspecified)"
group_label = "inactive"


# next compound below
Which result was noted for this compound in the test: CC(=O)Nc1ccc(C2CC(c3ccc([N+](=O)[O-])cc3)=Nc3ccccc3S2)cc1 (stereo unspecified)
inactive

###

test system: MCF7; experiment: NCI tumour cell line growth inhibition, 48 h
Active and inactive are the calls of the source. No stated cut-off is given here; in the data, active = GI50 up to about 1.1 µM and inactive = higher.
// classify into active, inactive

Recorded results for 3 compounds are shown here.
[[record]]
compound = "CO[C@H]1C[C@H](O[C@H]2CC[C@]3(C=O)[C@H]4CC[C@]5(C)[C@@H](C6=CC(=O)OC6)CC[C@]5(O)[C@@H]4CC[C@]3(O)C2)O[C@H](C)[C@H]1O [CYMARIN]"
group_label = "active"

[[record]]
compound = "c1ccc(-c2cc(-c3ccncc3)cc(-c3ccncc3)n2)cc1"
group_label = "active"

[[record]]
compound = "C[C@]12CC/C(=N\\OCCN3CCCC3)C=C1CCC1C2CC[C@@]2(C)C1CC[C@]2(C)O (some centres undefined)"
group_label = "inactive"


Which result was noted for this compound in the test: O=C(CC(C(=O)c1ccc(F)cc1)c1ccsc1)c1cccs1 (centres undefined)
inactive

Which result was noted for this compound in the test: CO/N=C(\C(=O)Nc1cncs1)c1csc(NC(c2ccccc2)(c2ccccc2)c2ccccc2)n1
inactive

###

tested on: PC-3; assay: NCI tumour cell line growth inhibition, 48 h
Calls of active or inactive are those of the source. Cut-off read from the data, not from the text of the source: active = GI50 up to about 1.1 µM and inactive = higher.
// classify into label 1 for active, label 0 for inactive

[[record]]
molecule = "Cc1ccc(NC(=S)N/N=C(/c2ccccc2)c2ccccn2)cc1"
tested_on = "PC-3"
group_label = "label 1"

[[record]]
molecule = "CCOP(=O)(OCC)/C(C#N)=C/c1cnc(-c2ccccc2)[nH]1"
tested_on = "PC-3"
group_label = "label 0"

[[record]]
molecule = "COC(=O)n1c(=O)nc2c3c(ncn21)Oc1c(c(-c2ccccc2)nn1-c1ccccc1)C3c1ccc(Cl)cc1 (stereo not given)"
tested_on = "PC-3"
group_label = "label 0"

[[record]]
molecule = "O=C(N[C@H](CO)[C@H](O)c1ccc([N+](=O)[O-])cc1)C(Cl)Cl"
tested_on = "PC-3"
group_label = "label 0"


# next molecule below
Which result was noted for this molecule in the test: COc1cccc(C23CCN(C)C(CC(O)C2)C3)c1OC (stereo not given)
label 0

###

tested on: DMS-273; assay: NCI tumour cell line growth inhibition, 48 h
Activity calls are given as the source filed them. Rule as the data show it: active = GI50 up to about 1.1 µM and inactive = higher.
A collection of compounds and their measured GI50

[[record]]
compound = "COC(=O)C1(C(=O)OC)CC2c3c(c4ccccc4n3C)CC(C1=O)N2Cc1ccccc1 (configuration not stated)"
parameter = "GI50"
result = "> 100 µM (inactive)"


Report measured GI50; entry is O=C(Nc1nc2ncn(CCNCCn3cnc4nc(NC(=O)c5ccccc5)[nH]c(=O)c43)c2c(=O)[nH]1)c1ccccc1
> 100 µM (inactive)

Report measured GI50; entry is Cc1ccc(C(=O)N(C2CCCCC2)C2CCCCC2)cc1/N=N/N(C)C
17.1 µM (inactive)

Report measured GI50; entry is CCN(CC)CCNC(=O)c1ccc([N+](=O)[O-])cc1OC
> 100 µM (inactive)

Report measured GI50; entry is CC(=O)C1=CCC2c3[nH]c4ccccc4c3CCN2C1 (configuration not stated)
34.5 µM (inactive)

Report measured GI50; entry is CCN(CC)CCCC(C)NC(=O)c1ccc2c(c1)C(=O)c1ccccc1C2=O (configuration not stated)
21.9 µM (inactive)

Report measured GI50; entry is CCOc1ccc(NC2=NC(=O)C(CC(=O)Nc3ccc(Cl)cc3Cl)S2)cc1 (configuration not stated)
> 100 µM (inactive)

Report measured GI50; entry is O=C(c1ccco1)N(C(=S)N1CCN(c2ccccn2)CC1)c1ccccc1
> 100 µM (inactive)

Report measured GI50; entry is O=C(O)CN(c1ccccc1)S(=O)(=O)c1ccc(Cl)cc1
> 100 µM (inactive)

###

test system: SK-OV-3; assay: NCI tumour cell line growth inhibition, 48 h
Calls of active or inactive are those of the source. Rule as the data show it: active = GI50 up to about 1.1 µM and inactive = higher.
// classify into T for active, F for inactive

[[record]]
molecule = "Cc1nc2c(nc1C)C(=O)c1ccccc1C2=O"
tested_on = "SK-OV-3"
group_label = "F"


Which result was noted for this molecule in the test: CC1=C(C)C(=O)O[C@@H]([C@](C)(O)[C@]2(O)CC[C@@]3(O)[C@@H]4C[C@H](O)[C@]5(O)[C@@H](O)C=CC(=O)[C@]5(C)[C@H]4CC[C@]23C)C1
F

Which result was noted for this molecule in the test: C[C@@H]1O[C@@H](O[C@H]2[C@H](Oc3cc(O)c4c(=O)cc(-c5ccc(O)cc5)oc4c3)O[C@H](CO)[C@@H](O)[C@@H]2O)[C@H](O)[C@H](O)[C@H]1O [RHOIFOLIN]
F

Which result was noted for this molecule in the test: Sc1nn2c(COc3ccc(Cl)cc3)nnc2s1
F

###

test system: ACHN; test: NCI tumour cell line growth inhibition, 48 h
The source made the active and inactive calls. Cut-off read from the data, not from the text of the source: active = GI50 up to about 1.1 µM and inactive = higher.
PARAMETER: GI50

Here are 3 molecules together with their reported answers.
[[record]]
molecule = "CCOc1ccccc1NC(=O)C1=C(C)NC(C)=C(C(=O)Nc2ccccc2OCC)C1c1ccc([N+](=O)[O-])cc1"
tested_on = "ACHN"
parameter = "GI50"
result = "> 100 µM (inactive)"

[[record]]
molecule = "COc1cc2c3c(c1OC)C1(C=CC(=O)C=C1)CC3NCC2 (stereo not given)"
tested_on = "ACHN"
parameter = "GI50"
result = "> 100 µM (inactive)"

[[record]]
molecule = "Clc1nc2c(-c3cccs3)ncnc2n1Cc1ccccc1"
tested_on = "ACHN"
parameter = "GI50"
result = "2 µM (inactive)"


Report measured GI50; entry is COC(=O)n1c(=O)nc2c3c(ncn21)Oc1c(c(-c2ccccc2)nn1-c1ccccc1)C3c1ccc(Cl)cc1 (stereo not given)
1.82 µM (inactive)

Report measured GI50; entry is NCCSC(c1ccccc1)c1ccccc1
31.8 µM (inactive)

Report measured GI50; entry is Cc1ccc(-c2cc(-c3ccccc3)nc(N)n2)c(O)c1
> 100 µM (inactive)

Report measured GI50; entry is N#CC(C#N)/N=N/c1ccc(-c2nc3ccccc3s2)cc1
3.68 µM (inactive)

Report measured GI50; entry is COC(=O)C1=C(O)c2cc(OC)c(OC)c(OC)c2C(c2ccc3c(c2)OCO3)[C@@H]1C(=O)OC (stereo not given in full)
4.74 µM (inactive)

Report measured GI50; entry is CC(=O)OCC1=C2C(OC(=O)C(C)C)CC3(COC(C)=O)OC3/C=C\C3(C)OC3C2OC1=O (stereo not given)
> 100 µM (inactive)

Report measured GI50; entry is C1=C(c2ccccc2)C(N2CCOCC2)Oc2ccccc21 (stereo not given)
> 100 µM (inactive)

# credit: ChEMBL document CHEMBL1201862
